- Test system: human NK3 receptor (Homo sapiens, UniProt P29371)
- Sequence (P29371 1-465): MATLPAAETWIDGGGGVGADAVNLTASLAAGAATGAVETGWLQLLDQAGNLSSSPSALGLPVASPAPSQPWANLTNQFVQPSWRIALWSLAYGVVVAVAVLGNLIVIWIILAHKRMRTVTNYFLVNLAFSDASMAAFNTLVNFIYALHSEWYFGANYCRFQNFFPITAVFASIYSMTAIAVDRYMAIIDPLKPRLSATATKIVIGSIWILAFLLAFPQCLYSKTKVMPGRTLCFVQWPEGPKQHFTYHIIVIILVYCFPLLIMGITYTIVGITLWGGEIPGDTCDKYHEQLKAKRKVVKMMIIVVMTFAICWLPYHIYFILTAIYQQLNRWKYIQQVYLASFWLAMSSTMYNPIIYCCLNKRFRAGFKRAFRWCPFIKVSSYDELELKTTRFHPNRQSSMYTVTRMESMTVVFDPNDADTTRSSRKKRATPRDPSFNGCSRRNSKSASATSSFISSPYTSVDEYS
- Method summary: Functional cellular test, Ca2+ measurements using aequorin for NK3 activity
- Type: cell-based
- Design: expressed in transfected cells; host or cells: cell line co-expressing mitochondrially targeted apoaequorin (CHO according to b76/b77)
- Settings: read-out: pA2 data for NK3 (converted)
Measured endpoint: Kb (µM)
Expressed in µM, but write only the number.

## Task Supply Kb value. Item: CN(C)C(=O)C1(N2CCCCC2)CCN(CCC(CN(C)C(=O)c2cc(Cl)ccc2F)c2ccc(Cl)c(Cl)c2)CC1 (stereo not shown)
## Result 0.00501

## Task Supply Kb value. Item: CN(C)C(=O)C1(N2CCCCC2)CCN(CCC(CN(C)C(=O)c2cccnc2)c2ccc(Cl)c(Cl)c2)CC1 (stereo not shown)
## Result 0.0501

## Task Supply Kb value. Item: `CC(=O)Oc1ccc(C(=O)N(C)C[C@@H](CCN2CCC(C(=O)N(C)C)(N3CCCCC3)CC2)c2ccc(Cl)c(Cl)c2)cc1`
## Result 0.00316

## Task Supply Kb value. Item: `CCC(=O)N(CC1CC1)C1CCN(CC[C@H](CN(C)C(=O)c2ccccc2)c2ccc(Cl)c(Cl)c2)CC1`
## Result 0.1

## Task Supply Kb value. Item: CN(C)C(=O)C1(N2CCCCC2)CCN(CCC(CN(C)C(=O)C2CCOCC2)c2ccc(Cl)c(Cl)c2)CC1 (stereo not shown)
## Result 0.0501

## Task Supply Kb value. Item: `CN(C)C(=O)C1(N2CCCCC2)CCN(CC[C@H](CN(C)C(=O)c2ccc(O)cc2)c2ccc(Cl)c(Cl)c2)CC1`
## Result 0.002

## Task Supply Kb value. Item: `CN(C[C@@H](CCN1CCC(C(=O)N2CCCCC2)(N2CCCCC2)CC1)c1ccc(Cl)c(Cl)c1)C(=O)c1ccccc1`
## Result 0.0158
